# systemName: PD-1/PD-L1 (Homo sapiens (Human))
# Sequence (Q9NZQ7 19-238): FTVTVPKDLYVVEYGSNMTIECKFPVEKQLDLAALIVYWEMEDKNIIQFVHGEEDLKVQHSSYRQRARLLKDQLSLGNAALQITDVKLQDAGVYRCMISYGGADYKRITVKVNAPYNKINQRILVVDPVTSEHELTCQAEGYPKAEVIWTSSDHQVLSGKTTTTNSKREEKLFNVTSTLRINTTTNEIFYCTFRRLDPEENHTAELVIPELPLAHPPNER
# assayProtocol: Homogeneous Time-Resolved Fluorescence (HTRF) binding assay
# experimentalParameters: CisBio kit #64CUS000C-1, read-out: IC50 of compounds binding to PD-1/PD-L1

{"compound": "COc1ccc(-c2cccc(/C=C/c3cc(OC)c(CN[C@@H](CO)C(=O)O)c(OC)c3)c2C)cc1", "units": "nM", "resultModifier": ">", "IC50": 10000}
{"compound": "COc1cc(/C=C/c2cccc(-c3ccccc3)c2C)cc(OC)c1CNc1cccc(O)c1C(=O)O", "units": "nM", "resultModifier": ">", "IC50": 10000}
{"compound": "COc1nc(/C=C/c2cccc(-c3ccccc3)c2C)ccc1CNC(CO)CO", "units": "nM", "resultModifier": "=", "IC50": 90}
{"compound": "Cc1cc(CN2CCCC(O)C2CO)ccc1/C=C/c1cccc(-c2ccccc2)c1C (stereo not shown)", "units": "nM", "resultModifier": "=", "IC50": 550}
{"compound": "COc1ccc(-c2cccc(/C=C/c3cc(OC)c(CNc4cccc(O)c4C(=O)O)c(OC)c3)c2C)cc1", "units": "nM", "resultModifier": ">", "IC50": 10000}
{"compound": "Cc1c(/C=C/c2ccc(CN3CCCC(O)C3C(N)=O)cc2F)cccc1-c1ccccc1 (stereo not shown)", "units": "nM", "resultModifier": ">", "IC50": 10000}
{"compound": "Cc1c(/C=C/c2cc(CN3CCC[C@H]3CO)ccc2C(F)(F)F)cccc1-c1ccc2c(c1)OCCO2", "units": "nM", "resultModifier": "=", "IC50": 2400}
